Known MIC of a selection of molecules
test system: Pseudomonas aeruginosa (Pa); assay: MIC for Pseudomonas aeruginosa, nutrient agar; assay type: cell-based, Pseudomonas aeruginosa ATCC 10145; conditions: pH 6.8, 30° C., 48 hours, read-out: Minimum Inhibitory Concentration (MIC), Pa

Past entries and their recorded results:
Input: May I ask what MIC has been recorded for `Cc1ccc(-n2ncc3c(c2=O)SC(C#N)=C(C#N)S3)cc1` ?
Output: > 500 µg/mL

Input: Name the reported MIC value associated with the molecule `N#CC1=C(C#N)Sc2c(cnn(Cc3ccccc3)c2=O)S1`
Output: 250 µg/mL

Input: Recorded MIC of `N#CC1=C(C#N)Sc2c(cnn(-c3ccc([N+](=O)[O-])cc3)c2=O)S1` , please.
Output: > 500 µg/mL

Input: Data request, read-out MIC, for `Cc1ccc(Cn2ncc3c(c2=O)SC(C#N)=C(C#N)S3)cc1`
Output: > 500 µg/mL

// below: MIC requested for another molecule
Input: Which MIC is listed for `N#CC1=C(C#N)Sc2c(cnn(Cc3ccc(Cl)cc3)c2=O)S1` ?
Output: > 500 µg/mL

====

test system: Fusarium oxysporum (Fo); assay: MIC for Fusarium oxysporum, malt yeast agar; format: cell-based, Fusarium oxysporum ATCC 48112; details: malt yeast agar; 30° C., 72 hours for fungi; read-out: Minimum Inhibitory Concentration (MIC), Fo
This listing pairs compounds with measured MIC.

Illustrative cases are given below, each with its answer.
Input: Endpoint output: MIC of `N#CC1=C(C#N)Sc2c(cnn(-c3ccccc3)c2=O)S1` . Value?
Output: 25 µg/mL

Input: What value of measured MIC is listed for `N#CC1=C(C#N)Sc2c(cnn(-c3ccc(Br)cc3)c2=O)S1` ?
Output: 10 µg/mL

Input: What does the data say about its MIC? Entry: `N#CC1=C(C#N)Sc2c(cnn(Cc3ccccc3)c2=O)S1`
Output: < 10 µg/mL

Input: Find the recorded MIC belonging to `N#CC1=C(C#N)Sc2c(cnn(-c3cccc(Cl)c3)c2=O)S1` and report it.
Output: 50 µg/mL

Input: # query: MIC of entry `N#CC1=C(C#N)Sc2c(cnn(-c3ccc(Cl)c(Cl)c3)c2=O)S1`
Output: 500 µg/mL

Input: Looking for the measured MIC of `Cc1ccc(Cn2ncc3c(c2=O)SC(C#N)=C(C#N)S3)cc1` , can you help?
Output: 25 µg/mL

Input: For the compound `N#CC1=C(C#N)Sc2c(cnn(Cc3ccc(Cl)cc3)c2=O)S1` , what MIC is on record?
Output: < 10 µg/mL

Input: Param item = `N#CC1=C(C#N)Sc2c(cnn(-c3ccc(Cl)cc3)c2=O)S1` ; retrieve measured MIC.
Output: 10 µg/mL

Input: Look up MIC: `Cc1ccc(-n2ncc3c(c2=O)SC(C#N)=C(C#N)S3)cc1`
Output: 25 µg/mL

Input: Given the entry `N#CC1=C(C#N)Sc2c(cnn(-c3ccc(Cl)cc3Cl)c2=O)S1` , report its measured MIC.
Output: 100 µg/mL

Proceed to the following item.
Input: What MIC value was documented for this compound, `N#CC1=C(C#N)Sc2c(cnn(-c3ccc([N+](=O)[O-])cc3)c2=O)S1` ?
Output: > 500 µg/mL

====

Recorded MIC, one value per entry.
tested on: Bacillus subtilis (Bs); experiment: MIC for Bacillus subtilis, nutrient agar; type: cell-based, Bacillus subtilis ATCC 8473; conditions: pH 8.2, nutrient agar, 30° C., 48 hours, read-out: Minimum Inhibitory Concentration (MIC), Bs
Provide only the numeric value, understood in µg/mL.

Field: example entries. Status: answers known.
Input: What does the record list as MIC for `N#CC1=C(C#N)Sc2c(cnn(-c3ccc(Br)cc3)c2=O)S1` ?
Output: 100

Input: Request the reported MIC associated with `N#CC1=C(C#N)Sc2c(cnn(-c3ccc(Cl)cc3Cl)c2=O)S1`
Output: 250

Query compound follows.
Input: What does the record list as MIC for `Cc1ccc(Cn2ncc3c(c2=O)SC(C#N)=C(C#N)S3)cc1` ?
Output: 100

Data provenance: patent US5488051A
